experiment: in vivo; settings: mouse, sc
Where a name gives a salt, the structure may show the parent alone.

[
  {
    "Compound": "CC1(C)S[C@@H]2[C@H](NC(=O)[C@@H](c3ccc(O)cc3)N(C3CCCCO3)C3CCCCO3)C(=O)N2[C@H]1C(=O)O (relative stereo) [Compound II, sodium salt]",
    "LD50 [mg/kg]": 4460
  },
  {
    "Compound": "CC1(C)S[C@@H]2[C@H](NC(=O)[C@H](NC3CCCS3)c3ccc(O)cc3)C(=O)N2[C@H]1C(=O)O (relative stereo) [Compound III, sodium salt]",
    "LD50 [mg/kg]": 598
  },
  {
    "Compound": "CC1(C)S[C@@H]2[C@H](NC(=O)[C@H](NC3CCCO3)c3ccc(O)cc3)C(=O)N2[C@H]1C(=O)O (relative stereo) [Compound I, sodium salt]",
    "LD50 [mg/kg]": 4550
  },
  {
    "Compound": "CCC1CC(F)C(N(C2OC(CC)CC2F)[C@@H](C(=O)N[C@@H]2C(=O)N3[C@@H]2SC(C)(C)[C@@H]3C(=O)O)c2ccc(O)cc2)O1 (relative stereo) [Compound IV, sodium salt]",
    "LD50 [mg/kg]": 2800
  }
]

Data origin: patent US4317775A
